Data provenance is paper PMC8909834.

test: Pharmacokinetics in mice; format: in vivo, BALB/c hairy mice; conditions: both sexes, BALB/c hairy, mouse, plasma, PO 100 mg/kg, 9.6 h, read-out: Plasma Conc.
readout-name: concentration at 9.6 h

Task item: Tell me its concentration at 9.6 h given Cc1cnc(N[C@H]2CC[C@H](N)CC2)nc1-c1cnc2ccc(-c3ccccc3)cn12 [CDDD11-8] as the entry.
Reply: 248 ng/mL

====

assay: Pharmacokinetics in mice; type: in vivo, BALB/c hairy mice; conditions: both sexes, BALB/c hairy, mouse, plasma, IV 2 mg/kg, 9.5 h, read-out: Plasma Conc.
readout-name: concentration at 9.5 h (ng/mL)
Numbers only, in ng/mL.

Task item: Tell me its concentration at 9.5 h given Cc1cnc(N[C@H]2CC[C@H](N)CC2)nc1-c1cnc2ccc(-c3ccccc3)cn12 as the entry.
Reply: 1.7

====

test: Pharmacokinetics in mice; assay type: in vivo, BALB/c hairy mice; settings: both sexes, BALB/c hairy, mouse, plasma, PO 10 mg/kg, 1.9 h, read-out: Plasma Conc.
readout-name: concentration at 1.9 h (ng/mL)
Answers are plain numbers, in ng/mL.

Task item: Tell me its concentration at 1.9 h given Cc1cnc(N[C@H]2CC[C@H](N)CC2)nc1-c1cnc2ccc(-c3ccccc3)cn12 as the entry.
Reply: 356

====

experiment: Pharmacokinetics in mice; assay type: in vivo, BALB/c hairy mice; settings: both sexes, BALB/c hairy, mouse, plasma, IV 2 mg/kg, 0.53 h, read-out: Plasma Conc.
readout-name: concentration at 0.53 h
Give the value; after it, write the unit.

Task item: Tell me its concentration at 0.53 h given Cc1cnc(N[C@H]2CC[C@H](N)CC2)nc1-c1cnc2ccc(-c3ccccc3)cn12 as the entry.
Reply: 367 ng/mL

====

experiment: Pharmacokinetics in mice; type: in vivo, BALB/c hairy mice; conditions: both sexes, BALB/c hairy, mouse, plasma, oral 100 mg/kg, ± standard error of the estimate
readout-name: Cmax
Give the value; after it, write the unit.

Task item: Tell me its Cmax given Cc1cnc(N[C@H]2CC[C@H](N)CC2)nc1-c1cnc2ccc(-c3ccccc3)cn12 as the entry.
Reply: 3.6 µg/mL

====

test: Pharmacokinetics in mice; type: in vivo, BALB/c hairy mice; settings: both sexes, BALB/c hairy, mouse, plasma, IV 2 mg/kg, 0.10 h, read-out: Plasma Conc.
readout-name: concentration at 0.1 h (ng/mL)
Numbers only, in ng/mL.

Task item: Tell me its concentration at 0.1 h given Cc1cnc(N[C@H]2CC[C@H](N)CC2)nc1-c1cnc2ccc(-c3ccccc3)cn12 [CDDD11-8] as the entry.
Reply: 1310

====

experiment: Pharmacokinetics in mice; type: in vivo, BALB/c hairy mice; conditions: both sexes, BALB/c hairy, mouse, plasma, PO 100 mg/kg, 0.10 h, read-out: Plasma Conc.
readout-name: concentration at 0.1 h (ng/mL)
Give bare numbers, in ng/mL.

Task item: Tell me its concentration at 0.1 h given Cc1cnc(N[C@H]2CC[C@H](N)CC2)nc1-c1cnc2ccc(-c3ccccc3)cn12 [CDDD11-8] as the entry.
Reply: 810

====

Test: Drug concentration in plasma and tumor 4 h post final dose
Assay type: in vivo, MV4-11 tumor-bearing mice
Settings: BALB/c nude (nu/nu), mouse, tumor, oral, 75 mg/kg, 75 mg/kg orally 5 days, 4 h post final dose, mouse 1; read-out: Tumor concentration
Description: To investigate the effect of CDDD11-8 on its targets in vivo, MV4-11 tumor-bearing mice (n = 3) were treated with the vehicle, CDDD11-8 (75 and 125 mg/kg), orally for 5 days. Four hours post final dose, tumor samples were collected and lysates prepared for western blot analysis (Figure 4C, Supplementary Figure S19). […] We also determined the concentration of CDDD11-8 in the plasma and tumor (Figure 4D, Supplementary Table S5). […]
readout-name: concentration at 4 h (ng/g)
Answers are plain numbers, in ng/g.

Task item: Tell me its concentration at 4 h given Cc1cnc(N[C@H]2CC[C@H](N)CC2)nc1-c1cnc2ccc(-c3ccccc3)cn12 as the entry.
Reply: 2140

====

target: TRKC (Homo sapiens)
Sequence (Q16288 32-839): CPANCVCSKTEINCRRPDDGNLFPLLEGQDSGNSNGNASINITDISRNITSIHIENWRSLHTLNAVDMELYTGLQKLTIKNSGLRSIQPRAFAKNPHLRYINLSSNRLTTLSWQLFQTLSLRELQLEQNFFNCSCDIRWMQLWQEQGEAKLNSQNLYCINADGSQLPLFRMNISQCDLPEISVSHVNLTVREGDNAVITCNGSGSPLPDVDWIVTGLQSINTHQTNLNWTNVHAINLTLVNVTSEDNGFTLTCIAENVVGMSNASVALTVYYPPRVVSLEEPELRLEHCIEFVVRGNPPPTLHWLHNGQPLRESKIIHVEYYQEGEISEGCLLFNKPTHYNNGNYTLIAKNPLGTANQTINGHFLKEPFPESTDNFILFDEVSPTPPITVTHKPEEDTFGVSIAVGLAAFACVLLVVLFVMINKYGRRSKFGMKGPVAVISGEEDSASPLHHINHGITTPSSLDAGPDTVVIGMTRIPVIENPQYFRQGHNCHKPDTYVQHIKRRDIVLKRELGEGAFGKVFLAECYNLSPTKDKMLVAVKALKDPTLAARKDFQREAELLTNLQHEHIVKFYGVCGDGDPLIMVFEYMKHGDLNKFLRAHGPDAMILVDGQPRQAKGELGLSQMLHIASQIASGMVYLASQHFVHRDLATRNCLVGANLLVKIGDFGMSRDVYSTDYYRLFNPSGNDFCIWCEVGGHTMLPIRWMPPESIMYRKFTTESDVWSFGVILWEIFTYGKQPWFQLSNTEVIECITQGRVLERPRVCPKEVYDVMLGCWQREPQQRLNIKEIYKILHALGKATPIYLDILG
readout-name: Ki (nM)
One number for each entry, in nM.

Task item: Tell me its Ki given Cc1cnc(N[C@H]2CC[C@H](N)CC2)nc1-c1cnc2ccc(-c3ccccc3)cn12 [CDDD11-8] as the entry.
Reply: 10

====

assay: Pharmacokinetics in mice; format: in vivo, BALB/c hairy mice; details: both sexes, BALB/c hairy, mouse, plasma, IV 2 mg/kg, 2.1 h, read-out: Plasma Conc.
readout-name: concentration at 2.1 h (ng/mL)
Give bare numbers, in ng/mL.

Task item: Tell me its concentration at 2.1 h given Cc1cnc(N[C@H]2CC[C@H](N)CC2)nc1-c1cnc2ccc(-c3ccccc3)cn12 as the entry.
Reply: 50

====

test: Drug concentration in plasma and tumor 4 h post final dose; type: in vivo, MV4-11 tumor-bearing mice; details: BALB/c nude (nu/nu), mouse, plasma, oral, 125 mg/kg, 125 mg/kg orally 5 days, 4 h post final dose, mouse 2; read-out: Plasma concentration
readout-name: concentration at 4 h (ng/mL)
Give bare numbers, in ng/mL.

Task item: Tell me its concentration at 4 h given Cc1cnc(N[C@H]2CC[C@H](N)CC2)nc1-c1cnc2ccc(-c3ccccc3)cn12 as the entry.
Reply: 2850

====

assay: Aqueous solubility by turbidimetric method; format: physicochemical; conditions: aqueous medium (not further specified), kinetic from dmso stock
readout-name: solubility

Task item: Tell me its solubility given Cc1cnc(N[C@H]2CC[C@H](N)CC2)nc1-c1cnc2ccc(-c3ccccc3)cn12 [CDDD11-8] as the entry.
Reply: > 100 µM

====

assay: Drug concentration in plasma and tumor 4 h post final dose; assay type: in vivo, MV4-11 tumor-bearing mice; conditions: BALB/c nude (nu/nu), mouse, plasma, oral, 125 mg/kg, 125 mg/kg orally 5 days, 4 h post final dose, mouse 1; read-out: Plasma concentration
readout-name: concentration at 4 h (ng/mL)
Give bare numbers, in ng/mL.

Task item: Tell me its concentration at 4 h given Cc1cnc(N[C@H]2CC[C@H](N)CC2)nc1-c1cnc2ccc(-c3ccccc3)cn12 as the entry.
Reply: 1440

====

test: Drug concentration in plasma and tumor 4 h post final dose; assay type: in vivo, MV4-11 tumor-bearing mice; conditions: BALB/c nude (nu/nu), mouse, plasma, oral, 75 mg/kg, 75 mg/kg orally 5 days, 4 h post final dose, mouse 1; read-out: Plasma concentration
readout-name: concentration at 4 h (ng/mL)
Numbers only, in ng/mL.

Task item: Tell me its concentration at 4 h given Cc1cnc(N[C@H]2CC[C@H](N)CC2)nc1-c1cnc2ccc(-c3ccccc3)cn12 as the entry.
Reply: 490

====

assay: Pharmacokinetics in mice; format: in vivo, BALB/c hairy mice; details: both sexes, BALB/c hairy, mouse, plasma, PO 100 mg/kg, 0.73 h, read-out: Plasma Conc.
readout-name: concentration at 0.73 h (ng/mL)
Answers are plain numbers, in ng/mL.

Task item: Tell me its concentration at 0.73 h given Cc1cnc(N[C@H]2CC[C@H](N)CC2)nc1-c1cnc2ccc(-c3ccccc3)cn12 [CDDD11-8] as the entry.
Reply: 2660

====

experiment: Pharmacokinetics in mice; format: in vivo, BALB/c hairy mice; settings: both sexes, BALB/c hairy, mouse, plasma, po, 10 mg/kg, oral 10 mg/kg, read-out: F (oral bioavailability)
readout-name: bioavailability

Task item: Tell me its bioavailability given Cc1cnc(N[C@H]2CC[C@H](N)CC2)nc1-c1cnc2ccc(-c3ccccc3)cn12 as the entry.
Reply: ~30%

====

test: Pharmacokinetics in mice; format: in vivo, BALB/c hairy mice; settings: both sexes, BALB/c hairy, mouse, plasma, IV 2 mg/kg, 1.4 h, read-out: Plasma Conc.
readout-name: concentration at 1.4 h (ng/mL)
Give bare numbers, in ng/mL.

Task item: Tell me its concentration at 1.4 h given Cc1cnc(N[C@H]2CC[C@H](N)CC2)nc1-c1cnc2ccc(-c3ccccc3)cn12 [CDDD11-8] as the entry.
Reply: 132

====

assay: Pharmacokinetics in mice; format: in vivo, BALB/c hairy mice; settings: both sexes, BALB/c hairy, mouse, plasma, PO 100 mg/kg, 7.8 h, read-out: Plasma Conc.
readout-name: concentration at 7.8 h (ng/mL)
One number for each entry, in ng/mL.

Task item: Tell me its concentration at 7.8 h given Cc1cnc(N[C@H]2CC[C@H](N)CC2)nc1-c1cnc2ccc(-c3ccccc3)cn12 as the entry.
Reply: 717

====

experiment: Pharmacokinetics in mice; assay type: in vivo, BALB/c hairy mice; details: both sexes, BALB/c hairy, mouse, plasma, PO 100 mg/kg, 6.1 h, read-out: Plasma Conc.
readout-name: concentration at 6.1 h (ng/mL)
Answers are plain numbers, in ng/mL.

Task item: Tell me its concentration at 6.1 h given Cc1cnc(N[C@H]2CC[C@H](N)CC2)nc1-c1cnc2ccc(-c3ccccc3)cn12 [CDDD11-8] as the entry.
Reply: 2160
